assayed.system: HLA-A*02:06
test: IEDB peptide-MHC binding, purified MHC/competitive/radioactivity; bounds were set here for any values at or beyond the usual limits of such assays
experimental.setup: source organism: Vaccinia virus WR
Measured IC50 of individual entries
experimental.endpoint: IC50 (nM)

>>> recorded_number("NIKPVIVPDI")
945
>>> recorded_number("YASLTTIGT")
161
>>> recorded_number("ALTDVEKRIL")
934
>>> recorded_number("VTFINDYANL")
148
>>> recorded_number("LTHFNNNENV")
996
>>> recorded_number("NIPELKHGLL")
1230
>>> recorded_number("TLLGLILFVL")
672
>>> recorded_number("STAEQLSKYV")
697
>>> recorded_number("ITRLEVIGL")
776
>>> recorded_number("NVFISPASI")
660

Data provenance is the Immune Epitope Database (IEDB).
